Give Potency ratio for every item shown.
# Species: Canis familiaris
# assay.info: Antihypertensive activity expressed as the ratio of the potency evaluated by increased vertebral blood flow (VBF) to that of diltiazem.
# Type: functional, Canis lupus familiaris
Give the value as a plain number.

Prompt line: For CCCN(C)CCN1C(=O)C(OC(C)=O)C(c2ccc(OC)cc2)Sc2cc(Cl)ccc21 (stereo not given) , what is its reported Potency ratio?
Response line: 0.5

Prompt line: Requested field: Potency ratio. Item: COc1ccc(C2Sc3cc(Cl)ccc3N(CCN(C)C)C(=O)C2O)cc1.Cl (stereo not given)
Response line: 0.76

Prompt line: Would you mind telling me what Potency ratio value was observed for CCN(C)CCN1C(=O)C(OC(C)=O)C(c2ccc(OC)cc2)Sc2cc(Cl)ccc21 (single isomer, unassigned; (+)) ?
Response line: 0.9

Prompt line: // query Potency ratio value for entry COc1ccc(C2Sc3cc(Cl)ccc3N(CCN(C)C)C(=O)C2OC(=O)c2ccc([N+](=O)[O-])cc2)cc1 (stereo not given)
Response line: 0.05

Prompt line: Which Potency ratio value is on record for C=CCN(C)CCN1C(=O)C(O)C(c2ccc(OC)cc2)Sc2cc(Cl)ccc21 (single isomer, unassigned; (+)) ?
Response line: 0.23

Prompt line: Field request: Potency ratio | item: CCN(C)CCN1C(=O)C(OC(C)=O)C(c2ccc(OC)cc2)Sc2cc(Cl)ccc21 (stereo in doubt; 2o)
Response line: 0.74

Prompt line: Fill in: Potency ratio of COc1ccc(C2Sc3c(Cl)cccc3N(CCN(C)C)C(=O)C2O)cc1 (single isomer, unassigned; (-)) is ___
Response line: 0.02

Prompt line: Recorded Potency ratio of COc1ccc(C2Sc3cc(Cl)ccc3N(CCN(C)C)C(=O)C2OC(=O)c2ccc(C)cc2)cc1 (stereo not given) , please.
Response line: 0.33

Prompt line: Value lookup for Potency ratio; key = COc1ccc(C2Sc3cccc(Cl)c3N(CCN(C)C)C(=O)C2OC(C)=O)cc1.Cl (stereo not given)
Response line: 0.62

Prompt line: What value of Potency ratio has been reported for the following compound? CCCN(C)CCN1C(=O)C(O)C(c2ccc(OC)cc2)Sc2cc(Cl)ccc21 (stereo not given)
Response line: 0.24

---

Exercise: for every item that follows, state its recorded Potency ratio.
# Organism: Canis familiaris
# assay.info: Antihypertensive activity expressed as the ratio of the potency evaluated by increased vertebral blood flow (VBF) to that of diltiazem.
# Format: functional, Canis lupus familiaris
When you answer, write just the number.

Prompt line: Which Potency ratio is reported for this molecule? Cc1ccc(C2Sc3cc(Cl)ccc3N(CCN(C)C)C(=O)C2OC(=O)c2ccc([N+](=O)[O-])cc2)cc1 (stereo not drawn)
Response line: 0.08

Prompt line: So what's the measured Potency ratio for this one? CCOC(=O)OC1C(=O)N(CCN(C)C)c2ccc(Cl)cc2SC1c1ccc(OC)cc1 (stereo not drawn)
Response line: 0.29

Prompt line: Using the record for COc1ccc(C2Sc3cc(F)ccc3N(CCN(C)C)C(=O)C2OC(C)=O)cc1.Cl (stereo not drawn) , report its Potency ratio.
Response line: 0.37

Prompt line: What does the data say about its Potency ratio? Entry: Cc1ccc(C2Sc3cc(Cl)ccc3N(CCN(C)C)C(=O)C2OC(=O)c2ccc([N+](=O)[O-])cc2Cl)cc1 (stereo not drawn)
Response line: 0.05

Prompt line: // query Potency ratio value for entry COc1ccc(C2Sc3cc(Cl)ccc3N(CCN(C)C)C(=O)C2OC(=O)c2ccc([N+](=O)[O-])cc2Cl)cc1 (single isomer, unassigned; (+))
Response line: 0.08

Prompt line: Would you mind telling me what Potency ratio value was observed for COc1ccc(C2Sc3c(ccc(Cl)c3Cl)N(CCN(C)C)C(=O)C2O)cc1.Cl (stereo not drawn) ?
Response line: 0.62

Prompt line: Look at this molecule and give its reported Potency ratio. COc1ccc(C2Sc3c(Cl)cccc3N(CCN(C)C)C(=O)C2OC(C)=O)cc1.Cl (stereo in doubt; 2cc)
Response line: 0.75

Prompt line: Fill blank: measured Potency ratio of the molecule COc1ccc(C2Sc3c(Cl)cccc3N(CCN(C)C)C(=O)C2O)cc1.Cl (stereo not drawn) is ____.
Response line: 0.91

Prompt line: I would be grateful if you could share the reported Potency ratio for C=CCN(C)CCN1C(=O)C(OC(C)=O)C(c2ccc(OC)cc2)Sc2cc(Cl)ccc21 (stereo not drawn) .
Response line: 1

Prompt line: Suppose we examine the molecule COc1ccc(C2Sc3cc(F)ccc3N(CCN(C)C)C(=O)C2OC(=O)c2ccc(C)cc2)cc1 (stereo not drawn) ; what Potency ratio value has been reported?
Response line: 0.26

Prompt line: Value lookup for Potency ratio; key = CSc1ccc(C2Sc3cc(Cl)ccc3N(CCN(C)C)C(=O)C2O)cc1 (stereo not drawn)
Response line: 0.09

Prompt line: May I ask what Potency ratio has been recorded for CCN(CC)CCN1C(=O)C(OC(C)=O)C(c2ccc(OC)cc2)Sc2cc(Cl)ccc21 (stereo not drawn) ?
Response line: 0.55

Prompt line: Given the entry COc1ccc(C2Sc3cccc(Cl)c3N(CCN(C)C)C(=O)C2O)cc1.Cl (stereo not drawn) , report its measured Potency ratio.
Response line: 0.2

Prompt line: Quick one: Potency ratio of COc1ccc(C2Sc3cc(Cl)c(Cl)cc3N(CCN(C)C)C(=O)C2O)cc1.Cl (stereo not drawn) ?
Response line: 0.29

Prompt line: Tell me the measured Potency ratio of COc1ccc(C2Sc3cc(Cl)ccc3N(CCN(C)C)C(=O)C2OCc2ccc([N+](=O)[O-])cc2)cc1 (single isomer, unassigned; (+)) , please.
Response line: 0.58

Prompt line: Tell me the measured Potency ratio of COc1ccc(C2Sc3cc(Cl)ccc3N(CCN(C)C)C(=O)C2OC(C)=O)cc1.Cl (single isomer, unassigned; (+)) , please.
Response line: 1.7

Prompt line: Consider the molecule shown here: CCCCNC(=O)OC1C(=O)N(CCN(C)C)c2ccc(F)cc2SC1c1ccc(OC)cc1 (stereo not drawn) What is its recorded Potency ratio?
Response line: 0.16

Prompt line: Tell me the measured Potency ratio of COc1ccc(C2Sc3cc(Cl)ccc3N(CCN(C)C)C(=O)C2OC(C)=O)cc1.Cl (stereo in doubt; 2b) , please.
Response line: 1.15
